Numbers sourced from paper PMC2919388.

# System: HCT-8 cells
# assay_info: Fluorescent HCT-8 host cell growth assay;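 note: percent of host cell growth remaining versus DMSO control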
# Assay type: cell-based, human
# assay_setup: Homo sapiens, HCT-8; compound at 25 μM, relative to DMSO alone
value_kind: activity at 25 µM

C[C@@H](Oc1ccnc2ccccc12)c1cn(-c2ccc(Cl)c(Cl)c2)nn1: 81%
CC(Oc1ccc(Cl)c2ccccc12)c1cn(-c2ccc(Cl)cc2)nn1 (stereo not shown): 108%
C[C@@H](Oc1cccc2c1ccc[n+]2[O-])c1cn(-c2ccc(Cl)cc2)nn1: 89%
CC(Oc1cccc2c1ccc[n+]2[O-])c1cn(-c2ccc(Cl)cc2)nn1 (stereo not shown): 62%

* * *

# system: UniProt:Q8T6T2
# Sequence (Q8T6T2 whole entry): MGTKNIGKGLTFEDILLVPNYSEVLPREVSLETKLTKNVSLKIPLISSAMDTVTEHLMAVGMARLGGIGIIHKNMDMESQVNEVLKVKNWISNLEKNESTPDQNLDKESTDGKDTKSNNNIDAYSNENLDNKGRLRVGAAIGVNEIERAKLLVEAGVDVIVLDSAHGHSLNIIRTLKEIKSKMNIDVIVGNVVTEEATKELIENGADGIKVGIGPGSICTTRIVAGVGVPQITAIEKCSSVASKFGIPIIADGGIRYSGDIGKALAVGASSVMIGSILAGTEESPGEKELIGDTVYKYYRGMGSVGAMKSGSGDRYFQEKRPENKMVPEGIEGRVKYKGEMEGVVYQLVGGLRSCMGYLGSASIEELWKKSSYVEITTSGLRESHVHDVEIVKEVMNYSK
# assay_info: CpIMPDH enzyme inhibition (without or with BSA)
# Format: biochemical
# assay_setup: in the presence of BSA; compound not previously described
value_kind: IC50

CC(Oc1cccc2ncccc12)c1cn(-c2ccc(Cl)cc2)nn1 (stereo not shown): 76 nM
